Numbers sourced from PubChem BioAssay (NCI).

tested on: K-562 leukemia; experiment: NCI tumour cell line growth inhibition, 48 h
Value Kind: GI50

[[record]]
molecule = "N#Cc1ccccc1C#C/C=C\\C#Cc1ccc(OCCCNC(=O)c2cc3ccccc3[nH]2)cc1"
endpoint_result = "3.2 µM"

[[record]]
molecule = "CN1C(=O)CNC(=O)[C@H](NC(=O)c2nc3ccccc3cc2O)CSSC[C@H]1C(=O)NCCc1nc2ccccc2cc1O"
endpoint_result = "1.57 µM"

[[record]]
molecule = "CC(C)=CCc1c(O)cc(/C=C/c2cc(O)c3c(c2)C[C@@H]2C(C)(C)[C@H](O)[C@H](O)C[C@@]2(C)O3)cc1O"
endpoint_result = "0.0154 µM"

[[record]]
molecule = "C#C[C@]1(O)CC[C@H]2[C@@H]3CC=C4c5sc(N=C(N)N)nc5CC[C@]4(C)[C@H]3CC[C@@]21C"
endpoint_result = "0.354 µM"

[[record]]
molecule = "CCN(CC)c1ccc2c(c1)Oc1nc(N)c(C#N)c(N)c1C2Sc1ccc(SC)cc1 (configuration not stated)"
endpoint_result = "2.33 µM"

[[record]]
molecule = "CCN(CC)CCOc1ccc(/C=C2\\CC3C4CCC5=CC(=O)CC[C@]5(C)C4CC[C@]3(C)C2=O)cc1OC (some centres not stated)"
endpoint_result = "3.14 µM"

[[record]]
molecule = "C=CC1CC12C(=O)C1OC2(C)C2C(=O)c3c(ccc4c3ccc3ccccc34)C(=O)C12 (configuration not stated)"
endpoint_result = "26.1 µM"

[[record]]
molecule = "CS(=O)(=O)CCNCc1ccc(-c2ccc3ncnc(Nc4ccc(OCc5cccc(C(F)(F)F)c5)cc4)c3c2)o1"
endpoint_result = "3.18 µM"

[[record]]
molecule = "CCCCCCCCCCCCCCCc1cc(O)ccc1N"
endpoint_result = "10.7 µM"

[[record]]
molecule = "CCC[C@H](N[C@@H]1CCc2cc(F)cc(F)c2C1)C(=O)Nc1cn(C(C)(C)CNCC(C)(C)C)cn1"
endpoint_result = "8.33 µM"


Req: Name the reported GI50 value associated with the molecule CCc1c2c(nc3cc4c(cc13)OCO4)-c1cc3c(c(=O)n1C2)COC(=O)[C@@]3(CC)OC(=O)CN
Resp: < 0.01 µM

Req: Thanks! And CC(ONC(=O)c1cc(C(F)(F)F)cc(C(F)(F)F)c1)C(=O)Nc1ccc(Cl)cc1 (configuration not stated) ?
Resp: 5.75 µM

====

system: RPMI-8226 leukemia; assay: NCI tumour cell line growth inhibition, 48 h; in the data active means GI50 below about 0.43 µM; inactive means the rest
Form entry, call: pick from true (1) = active, false (0) = inactive

[[record]]
input_smiles = "CN1CCN(c2ccc3nc(-c4cc(C(C)(C)C)c(O)c(C(C)(C)C)c4)[nH]c3c2)CC1"
tested_system = "RPMI-8226 leukemia"
discrete_label = "false (0)"

[[record]]
input_smiles = "CCC[CH2][Sn]([CH2]CCC)([O]C(=O)c1cccc(F)c1)[O]C(=O)c1cccc(F)c1"
tested_system = "RPMI-8226 leukemia"
discrete_label = "true (1)"


Req: How did this test come out for O=C(COc1cccc(/C=C2\COc3ccccc3C2=O)c1)Nc1nccs1 ?
Resp: false (0)

Req: Thanks! And CCCCCCCCCCCCCCCc1cc(O)ccc1N ?
Resp: true (1)

Req: Thanks! And Cn1c(COC(=O)N2CCCCC2)nc2c(N3CCOCC3)nc(-c3ccccc3)nc21 ?
Resp: true (1)
